- Target: recombinant human MAO-B (monoamine oxidase-B) (Homo sapiens)
- Construct: purchased Sigma-Aldrich
- Sequence (P27338 whole entry): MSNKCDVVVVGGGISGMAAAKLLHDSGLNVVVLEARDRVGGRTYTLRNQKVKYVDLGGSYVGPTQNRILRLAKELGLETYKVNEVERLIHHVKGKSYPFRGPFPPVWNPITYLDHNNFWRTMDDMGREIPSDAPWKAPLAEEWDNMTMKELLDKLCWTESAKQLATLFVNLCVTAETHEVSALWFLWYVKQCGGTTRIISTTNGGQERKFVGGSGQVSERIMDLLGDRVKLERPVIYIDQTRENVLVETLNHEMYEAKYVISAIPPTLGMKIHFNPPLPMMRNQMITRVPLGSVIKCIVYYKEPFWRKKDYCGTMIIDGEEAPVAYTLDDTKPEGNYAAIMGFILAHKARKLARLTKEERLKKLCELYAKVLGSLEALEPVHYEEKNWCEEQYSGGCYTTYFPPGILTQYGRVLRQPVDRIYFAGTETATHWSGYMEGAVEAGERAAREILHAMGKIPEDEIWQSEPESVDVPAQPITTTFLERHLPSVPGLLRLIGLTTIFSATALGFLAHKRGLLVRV
- Protocol Details: Activity on recombinant human MAO-B, Amplex Red method, 1 mM benzylamine substrate
- Format: biochemical
- Reported Conditions: 1 mM benzylamine, read-out: Inhibitory Activity (IC50, nM) MAO-B
Where a name gives a salt, the structure may show the parent alone.
Reported Property: IC50 (nM)

Sample records with IC50:
| Compound | Reported Property | Assay Value |
| --- | --- | --- |
| NC/C(=C\F)Cn1ncn(-c2cccc(-c3cccc(-c4ncon4)c3)c2)c1=O [Example 62] | IC50 | 117 |
| NC/C(=C/F)Cn1ncn(-c2cccc(-c3ccc4c(c3)OCCO4)c2)c1=O [Example 94, hydrochloride] | IC50 | 2630 |
| NC/C(=C/F)Cn1ncn(-c2c(F)cc(Br)cc2F)c1=O [Example 21, hydrochloride] | IC50 | 25 |
| NC/C(=C/F)Cn1ncn(-c2ccc(F)cc2)c1=O [Example 5] | IC50 | 260 |
| NC/C(=C/F)Cn1ncn(-c2cccc(-c3ccc4c(c3)OCO4)c2)c1=O [Example 92, hydrochloride] | IC50 | 1350 |

a: NC/C(=C\F)Cn1ncn(-c2cccc(-c3ccc(Cl)nc3)c2)c1=O [Example 85, hydrochloride]
b: NC/C(=C/F)Cn1ncn(-c2cccc(Br)c2)c1=O [Example 3, hydrochloride]
From the recorded data, which exceeds the other in IC50: a or b ? Let me know the label of the one you choose.
a

a: CC(=O)Nc1ccc(-c2ccc(-n3cnn(C/C(=C\F)CN)c3=O)nc2)cc1 [Example 130, hydrochloride]
b: Cc1cc(-n2cnn(C/C(=C/F)CN)c2=O)cnc1Br [Example 27, hydrochloride]
Field: lower IC50 | Options: a / b Answer format: the label of the selected item.
a
(a: 20 nM, b: 63 nM)

Ref: patent US11492335B2
